- System: SMN2-linked luciferase-reporter gene construct
- testProtocol: SMN splice reporter assay (SMN2-linked luciferase reporter, Example 10)
- Assay type: cell-based
- settings: SMN2-linked luciferase reporter, average
valueKind: log10 EC50 (log10 of the value in nM)
The common logarithm of EC50 in nM is what is listed.

Inquiry: Return reported log10 EC50. Input molecule: CC(C(=O)O)c1ccc(N2Cc3c(Cl)cccc3C2=O)cc1 (centres unmarked)
Reply text: 4.14

Inquiry: Return reported log10 EC50. Input molecule: C=Cc1ccc2c(c1)C(=O)N(c1ccc(C(C)C(=O)O)cc1)C2 (centres unmarked)
Reply text: 1.90

Inquiry: Return reported log10 EC50. Input molecule: CCCC(C)c1ccc(N2Cc3ccc(OC)cc3C2=O)cc1 (centres unmarked)
Reply text: 3.46

Inquiry: Return reported log10 EC50. Input molecule: COc1ccc2c(c1)CN(c1ccc(C(C)C(=O)O)cc1)C2=O (centres unmarked)
Reply text: 2.65

Inquiry: Return reported log10 EC50. Input molecule: CC(C(=O)O)c1ccc(N2Cc3cc(-c4cncnc4)ccc3C2=O)cc1 (centres unmarked)
Reply text: 3.62
